Data origin: patent US20140162942A1

Tested on: CYP3A4/5
experimental_details: CYP3A4/5 inhibition, midazolam 1′-hydroxylation in human liver microsomes (IC50 and Ki)
Type: in vitro ADME
assay_context: human, pooled human liver microsomes, pH 7.4, probe midazolam (1′-hydroxylation), direct inhibition, zero-minute pre-incubation, read-out: Max. Inhib. at 100 μM
result_type: inhibition at 5 min, 100 µM (%)

> print(dat)
                                   molecule  unit.info  quantitative.result
1  CC(C)(C)NC(=O)NC(C(=O)N1CC2C([C@H]1C(=O)NC(CC1CCC1)C(=O)C(N)=O)C2(C)C)C(C)(C)C (stereo partly shown)          %                   91
